Kindly supply the reported IC50 values for the records listed here.
biological target: Serine/threonine-protein phosphatase PP1-alpha catalytic subunit (Homo sapiens) (UniProt P62136); test: PP1 inhibitor potency with OMFP substrate, dose response, biochemical, fluorescence, set 3 (AID 652220); settings: purified PP1alpha, OMFP dephosphorylation
Sequence (P62136 whole entry, looked up): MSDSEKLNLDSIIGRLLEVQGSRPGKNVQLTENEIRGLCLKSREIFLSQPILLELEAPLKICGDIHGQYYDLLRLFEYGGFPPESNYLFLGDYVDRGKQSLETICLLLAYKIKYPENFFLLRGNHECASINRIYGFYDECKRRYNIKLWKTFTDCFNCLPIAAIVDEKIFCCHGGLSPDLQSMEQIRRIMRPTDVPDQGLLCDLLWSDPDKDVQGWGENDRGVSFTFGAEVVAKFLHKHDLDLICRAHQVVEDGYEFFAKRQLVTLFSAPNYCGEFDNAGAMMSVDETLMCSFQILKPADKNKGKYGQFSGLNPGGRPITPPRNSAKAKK

Query string: Bench note: what IC50 did CN1CCN([C@@H](c2ncccn2)c2ccc3cccnc3c2O)CC1 show?
Result string: 4.81 µM

Others:
Query string: Reported IC50 for CN1CCN([C@H](c2ncccn2)c2ccc3cccnc3c2O)CC1 : what is it?
Result string: 5.86 µM

Data origin: PubChem BioAssay AID652220
